- Test system: HL-60 cells (human acute promyelocytic leukemia cell line)
- ASSAY NAME: Growth-inhibiting activity against animal cells (WST-8), HL-60
- Assay type: cell-based
- MEASUREMENT SETUP: Homo sapiens; HL-60 cells, 48 hours after addition of the agent, WST-8; read-out: HL60 IC50
- Method: […] HL-60 cells and K562 cells were seeded in a 96-well plate (manufactured by IWAKI) so as to be 1.5×10^4 cells/well/100 μl. tsFT210 cells were seeded in a 96-well plate so as to be 1.6×10^4 cell/well/100 μl. […] After the reaction, absorbance at 450 nm was measured using a microplate reader (manufactured by PerkinElmer) and a cell proliferation rate was determined from the measurement value.
Quick list: IC50 per entry.
Report the figure in µg/mL without appending any unit label.

Worked examples, 2 molecules total:
Sample CC(/C=C/[C@H](O)[C@@H](C)/C=C/C(=O)O)=C\C[C@H]1O[C@@]2(CC[C@H](C)[C@H](/C=C/C(C)=C/C(=O)O)O2)CC[C@@H]1C [SF-A, spirofungin A, reference compound] — what was its IC50? 1.2

GET /values?readout=IC50&item= "CCCC[C@H]1CC[C@]2(CC[C@H](C)[C@@H](C/C=C(C)/C=C/[C@H](O)[C@@H](C)/C=C/C(=O)OCC)O2)O[C@H]1/C=C/C(C)=C/C(=O)O" 0.2

New cases:
I am curious: what IC50 value has been reported for CCCCC1CCC(CCC(C)C(O)C/C=C(C)/C=C/C(O)C(C)/C=C/C(=O)O)OC1/C=C/C(C)=C/CC(O)CC (stereo not shown) ? 7.4

Report IC50 for CCCCC(CCC(O)CCC(C)C(O)C/C=C(C)/C=C/C(O)C(C)/C=C/C(=O)O)C(O)/C=C/C(C)=C/CC(O)CC (stereo not shown) please. 20.9

* * *

- Tested on: K562 cells (human chronic myeloid leukemia cell line)
- ASSAY NAME: Growth-inhibiting activity against animal cells (WST-8), K562
- Format: cell-based
- MEASUREMENT SETUP: K562, 48 h, read-out: K562 IC50
MEASURED PROPERTY: log10(IC50) (log10 of the value in µg/mL)
A value of 2 here means IC50 of 100 in µg/mL, since values are log10.

Some solved cases for reference:
Query (compound): CCCCC1CCC2(CCC(C)C(C/C=C(C)/C=C/C(O)C(C)/C=C/C(=O)O)O2)OC1/C=C/C(C)=C/COC(=O)CC (centres unmarked) ; field requested: log10(IC50) 1.27

Item "CCCC[C@@]1(OC(=O)CCC(=O)O)CC[C@]2(CC[C@H](C)[C@@H](C/C=C(C)/C=C/[C@H](O)[C@@H](C)/C=C/C(=O)O)O2)O[C@H]1/C=C/C(C)=C/C(=O)O" has what recorded log10(IC50)? 0.69

Entry CCCCC1CCC2(CCC(C)C(C/C=C(C)/C=C/C(O)C(C)/C=C/C(=O)O)O2)OC1/C=C/C(C)=C/CO (centres unmarked) has what log10(IC50)? 1.17

Here's the next entry for you.
Fill in: log10(IC50) of CCCCC1CCC2(CCC(C)C(C/C=C(C)/C=C/C(O)C(C)/C=C/C(=O)O)O2)OC1/C=C/C(C)=C/CC(O)CC (centres unmarked) is ___ 0.53

* * *

- Tested on: Escherichia coli (HO141 strain)
- ASSAY NAME: Growth-inhibiting activity against Escherichia coli
- Assay type: cell-based
- MEASUREMENT SETUP: 6 hours, absorbance at 600 nm, read-out: E. coli IC50
MEASURED PROPERTY: IC50

Use these answered entries as a reference point.
Give its IC50 value. Item: "CCCC[C@@]1(OC(=O)CCC(=O)O)CC[C@]2(CC[C@H](C)[C@@H](C/C=C(C)/C=C/[C@H](O)[C@@H](C)/C=C/C(=O)O)O2)O[C@H]1/C=C/C(C)=C/CO" > 50 µg/mL

Could you share which IC50 value was measured for CCCCC1CCC(CCC(C)C(O)C/C=C(C)/C=C/C(O)C(C)/C=C/C(=O)O)OC1/C=C/C(C)=C/CC(O)CC (centres unmarked) ? 31.9 µg/mL

Can you share its IC50? I mean this molecule: CCCCC1CCC2(CCC(C)C(C/C=C(C)/C=C/C(O)C(C)/C=C/C(=O)O)O2)OC1/C=C/C(C)=C/CO (centres unmarked) 24.6 µg/mL

If you can, please state the reported IC50 value of CCCCC(CCC(O)CCC(C)C(O)C/C=C(C)/C=C/C(O)C(C)/C=C/C(=O)O)C(O)C/C=C(C)/C=C/C(=O)CC (centres unmarked) . > 50 µg/mL

Would you mind telling me what IC50 value was observed for "CCCCCC[C@@]1(OC(=O)CCC(=O)O)CC[C@]2(CC[C@H](C)[C@@H](C/C=C(C)/C=C/[C@H](O)[C@@H](C)/C=C/C(=O)O)O2)O[C@H]1/C=C/C(C)=C/C(=O)O" ? > 50 µg/mL

---
Dear colleague, I am looking for the recorded IC50 of the following molecule: CC(/C=C/[C@H](O)[C@@H](C)/C=C/C(=O)O)=C\C[C@H]1O[C@]2(CC[C@H](C)[C@H](/C=C/C(C)=C/C(=O)O)O2)CC[C@@H]1C [SF-B, spirofungin B, reference compound] > 50 µg/mL

Suppose we examine the molecule "CCCC[C@H]1CC[C@]2(CC[C@H](C)[C@@H](C/C=C(C)/C=C/[C@H](O)[C@@H](C)/C=C/C(=O)OC)O2)O[C@H]1/C=C/C(C)=C/C(=O)O" ; what IC50 value has been reported? > 50 µg/mL

Look up IC50: CCCCC1CCC2(CCC(C)C(C/C=C(C)/C=C/C(O)C(C)/C=C/C(=O)O)O2)OC1/C=C/C(C)=C/CC(O)CC (centres unmarked) > 50 µg/mL

May I ask what IC50 has been recorded for "CCCC[C@H]1CC[C@]2(CC[C@H](C)[C@@H](C/C=C(C)/C=C/[C@H](O)[C@@H](C)/C=C/C(=O)OCC)O2)O[C@H]1/C=C/C(C)=C/C(=O)O" ? > 50 µg/mL

// IC50 lookup, key: CCCCC1CCC2(CCC(C)C(C/C=C(C)/C=C/C(O)C(C)/C=C/C(=O)O)O2)OC1/C=C/C(C)=C/C(=O)O (centres unmarked) > 50 µg/mL

Quick check: IC50 of "CCCC[C@@]1(OC(=O)CCC(=O)O)CC[C@]2(CC[C@H](C)[C@@H](C/C=C(C)/C=C/[C@H](O)[C@@H](C)/C=C/C(=O)O)O2)O[C@H]1/C=C/C(C)=C/C(=O)O" ? > 50 µg/mL

* * *

- Test system: HL-60 cells (human acute promyelocytic leukemia cell line)
- ASSAY NAME: Growth-inhibiting activity against animal cells (WST-8), HL-60
- Type: cell-based
- MEASUREMENT SETUP: Homo sapiens; HL-60 cells, 48 hours after addition of the agent, WST-8; read-out: HL60 IC50
MEASURED PROPERTY: IC50

What does the record list as IC50 for CCCCC(CCC(O)CCC(C)C(O)C/C=C(C)/C=C/C(O)C(C)/C=C/C(=O)O)C(O)/C=C/C(C)=C/C(=O)O (stereo not drawn) ? > 30 µg/mL

Which IC50 is listed for CCCCC(CCC(O)CCC(C)C(O)C/C=C(C)/C=C/C(O)C(C)/C=C/C(=O)O)C(O)C/C=C(C)/C=C/C(=O)CC (stereo not drawn) ? > 30 µg/mL

Continuing:
Return reported IC50; argument: CC(/C=C/[C@H](O)[C@@H](C)/C=C/C(=O)O)=C\C[C@H]1O[C@]2(CC[C@H](C)[C@H](/C=C/C(C)=C/C(=O)O)O2)CC[C@@H]1C [SF-B, spirofungin B, reference compound] > 30 µg/mL

* * *

- Tested on: K562 cells (human chronic myeloid leukemia cell line)
- ASSAY NAME: Growth-inhibiting activity against animal cells (WST-8), K562
- Assay type: cell-based
- MEASUREMENT SETUP: K562, 48 h, read-out: K562 IC50
MEASURED PROPERTY: IC50 (µg/mL)
Respond numerically; units are µg/mL and should not be typed.

Find the recorded IC50 belonging to "CCCCCC[C@@]1(OC(=O)CCC(=O)O)CC[C@]2(CC[C@H](C)[C@@H](C/C=C(C)/C=C/[C@H](O)[C@@H](C)/C=C/C(=O)O)O2)O[C@H]1/C=C/C(C)=C/C(=O)O" and report it. 1.9

New cases:
Could you share which IC50 value was measured for CCCCC1CCC2(CCC(C)C(C/C=C(C)/C=C/C(O)C(C)/C=C/C(=O)O)O2)OC1/C=C/C(C)=C/C(=O)O (stereo not shown) ? 0.7

For the compound "CCCC[C@@]1(OC(=O)CCC(=O)O)CC[C@]2(CC[C@H](C)[C@@H](C/C=C(C)/C=C/[C@H](O)[C@@H](C)/C=C/C(=O)O)O2)O[C@H]1/C=C/C(C)=C/CO" , what IC50 is on record? 22.3

Please give the measured IC50 for this compound: "CCCC[C@H]1CC[C@]2(CC[C@H](C)[C@@H](C/C=C(C)/C=C/[C@H](O)[C@@H](C)/C=C/C(=O)OC)O2)O[C@H]1/C=C/C(C)=C/C(=O)O" 2.5
